- Species on record: Rattus norvegicus
- assay.notes: Open TG-GATES - Regimen: Daily Repeat
- Assay type: toxicity, organism-based, Sprague-Dawley
- Design: regimen Daily Repeat, gender Male, age 6 weeks
- experimental.context: in vivo, po, 0 mg/kg, […], tissue Plasma, route gavage, dose level Control, time 28 day
experimental.endpoint: A/G
Please give the numeric answer without any surrounding text.

Previously resolved entries follow.
Clc1c(Cl)c(Cl)c(Cl)c(Cl)c1Cl : 1.8
CN(C)[C@@H]1C(O)=C(C(N)=O)C(=O)[C@@]2(O)C(O)=C3C(=O)c4c(O)cccc4[C@@](C)(O)[C@H]3C[C@@H]12 : 1.7

[in] Requested read-out: A/G. Entry: CCOC(=O)[C@H](CCc1ccccc1)N[C@@H](C)C(=O)N1CCC[C@H]1C(=O)O
[out] 1.9

[in] Quick one: A/G of Cc1cccc(Nc2ccccc2C(=O)O)c1C ?
[out] 1.3

[in] Which A/G is reported for this compound? CN1C(C(=O)Nc2ccccn2)=C(O)c2sc(Cl)cc2S1(=O)=O
[out] 1.4

[in] Could you tell me which A/G is on file for CC(CN1c2ccccc2Sc2ccccc21)N(C)C (stereo unspecified) ?
[out] 1
